// provenance: paper PMC5011961

- Tested on: Candida tropicalis
- procedure details: Antifungal assay, macrobroth 2-fold serial dilution MIC
- study conditions: Candida tropicalis, C. tropicalis 2.2735, deep fungi
observation type: MIC (µg/mL)
Give just the numeric value; µg/mL need not be written.

Worked set:
CC(=O)c1c(C)[n+]([O-])c2ccccc2[n+]1[O-] ... 64
C[C@@H]1[C@H](O)[C@@H](C)/C=C/C=C/C=C/C=C/C=C/C=C/C=C/[C@H](O[C@@H]2O[C@H](C)[C@@H](O)[C@H](N)[C@@H]2O)C[C@@H]2O[C@](O)(C[C@@H](O)C[C@@H](O)[C@H](O)CC[C@@H](O)C[C@@H](O)CC(=O)O[C@H]1C)C[C@H](O)[C@H]2C(=O)O ... 2

Attention now shifts to the item below.
So what does the record say about MIC for N#CCC(=O)N/N=C/c1c[n+]([O-])c2ccccc2[n+]1[O-] ?
32
